biological target: D(1A) dopamine receptor (Homo sapiens); assay: Agonist activity at D1 receptor (unknown origin) expressed in CHOK1 cells assessed as increase in cAMP accumulation at 10 uM measured after 30 mins; type: functional, cell-based
Sequence (P21728 whole entry): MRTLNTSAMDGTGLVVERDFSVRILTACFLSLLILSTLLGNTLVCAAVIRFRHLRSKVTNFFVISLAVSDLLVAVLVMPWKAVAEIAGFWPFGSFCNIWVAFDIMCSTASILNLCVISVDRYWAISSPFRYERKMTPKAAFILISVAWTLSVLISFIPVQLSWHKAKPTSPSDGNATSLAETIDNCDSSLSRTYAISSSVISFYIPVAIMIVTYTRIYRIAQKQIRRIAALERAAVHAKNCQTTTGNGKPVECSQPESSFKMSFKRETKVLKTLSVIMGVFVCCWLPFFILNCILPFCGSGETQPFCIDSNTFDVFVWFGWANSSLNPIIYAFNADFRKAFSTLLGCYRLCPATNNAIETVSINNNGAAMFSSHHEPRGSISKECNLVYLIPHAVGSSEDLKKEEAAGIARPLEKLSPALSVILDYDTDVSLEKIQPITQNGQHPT
metric: Activity (%)
Use % as the unit, but write only the number.

Requested field: Activity. Item: COc1cc2c(cc1OC)C1Cc3c(cc(O)c(OC)c3OC)CN1CC2 (racemic)
5.95

Please give the result for COc1cc2c(c(OC)c1O)CC1c3cc4c(cc3CCN1C2)OCO4 (racemic) too.
-5.75

Please give the result for "COc1ccc2c(c1O[C@@H]1O[C@H](CO)[C@@H](O)[C@H](O)[C@H]1O)CN1CCc3cc4c(cc3[C@@H]1C2)OCO4" too.
-1.05

Please give the result for COc1cc2c(cc1OC)[C@@H]1Cc3ccc(OC)c(OC)c3CN1CC2 [TETRAHYDROPALMATINE] too.
-7.43

Please give the result for Oc1cccc2c1CC1c3cc4c(cc3CCN1C2)OCO4 (racemic) too.
1.8

Please give the result for COc1cc2c(cc1O)C1Cc3cc(OC)c(OC)cc3CN1CC2 (racemic) too.
24.4

Please give the result for COc1cc2c(cc1OC)C1Cc3c(cc(OC)c(O)c3OC)CN1CC2 (racemic) too.
-4.17

Please give the result for c1ccc(COc2cccc3c2CC2c4cc5c(cc4CCN2C3)OCO5)cc1 (racemic) too.
4.48
